Experiment: STM_H9_CystineISnorm_perc: Stemina devTOX quickPredict H9 human embryonic stem cell (hESC)-based Assay for Cystine (CYSS) Metabolite Biomarker, Normalized (AID 2283713)
From the text: STM_H9_secretome utilizes undifferentiated H9 cells to measure relative changes in two metabolites, ornithine (ORN) and cystine (CYSS) in the secretome, targeting a critical drop in the ORN/CYSS ratio as a biomarker for developmental toxicity.STM_H9_CystineISnorm_perc is one of 10 components calculated in the STM_H9_secretome assay. […]
Calls of active or inactive are those of the source. The calls were made as follows: active = hit-call score of the fitted dose curve at least 0.9, where 1 is the maximum; inactive = score below 0.9.
reported_endpoint: AC50

# example entries with known answers
Clc1cc(Cl)c2c(c1)N=C1CCCCCN1C2; inactive
O=C=NCCCCCCN=C=O; inactive
CCOC(=O)O[C@H](C)OC(=O)c1ccc2c(c1)cc(C(=O)NC1CCN(C(C)C)CC1)n2Cc1cc(-c2ccc(Cl)s2)on1; inactive
CC[C@H](NC(=O)c1cc(F)ccc1NS(=O)(=O)c1cccc2cccnc12)c1ccccc1; inactive
COc1cccc([C@H](O)C2CCN(CCc3ccc(F)cc3)CC2)c1OC; 6.34 µM (active)
COc1ccc2cc(S(=O)(=O)N[C@H](CC(=O)N[C@H](Cc3ccc(CN4[C@H](C)CCC[C@@H]4C)cc3)C(=O)N(C)C(C)C)c3ccc4c(c3)OCO4)ccc2c1; 22.6 µM (active)
CN1C(=O)CC[C@H]1c1cccnc1; inactive
CC(C)(C)c1cc(/C=C2\SC(N)=NC2=O)cc(C(C)(C)C)c1O; 5 µM (active)

Query: Entry `COc1cc(C(=O)NC2CCN(C)CC2)ccc1Nc1ncc2c(n1)N(C1CCCC1)CC(F)(F)C(=O)N2C` : reported AC50 = ?
Response: 0.0284 µM (active)

Query: Next: CN1C(=O)N(c2ccccc2Br)Cc2cnc(Nc3ccc4c(c3)OCC(CO)O4)nc21 (stereo unspecified)
Response: 1.06 µM (active)

Query: Next: `NC(=O)c1nc(-c2cccc(-c3cc(F)ccc3OCC(F)(F)C(F)(F)F)c2)n[nH]1`
Response: 3.59 µM (active)

====

Read-out: CD38, CD38 (gene 952)
Assay: BSK_SAg_CD38: BioMAP Diversity Plus: SAg Assay for CD38 Biomarker Activity (AID 2283087)
Conditions: primary human HUVEC with PBMC; actives raise or lower the signal
Protocol: BSK_SAg is a cell-based, multiplexed-readout assay that uses umbilical vein endothelium and peripheral blood mononuclear cells, a human vascular primary cell co-culture, with measurements taken at 24 hours after chemical dosing in a 96-well plate.BSK_SAg_CD38 is one of 10 assay component(s) measured or calculated from the BSK_SAg assay. […] This assay endpoint, BSK_SAg_CD38, was analyzed with bidirectional fitting relative to DMSO as the negative control and baseline of activity. […]
The source made the active and inactive calls. How the source made its calls: active means hit-call score of the fitted dose curve at least 0.9, where 1 is the maximum; inactive means score below 0.9.
Answer with one of the outcomes given here: active, inactive

Take a look at these entries with their results.
C[C@]12CC[C@@H]3c4ccc(O)cc4CC[C@H]3[C@@H]1CC[C@H]2O; inactive
O=c1c(-c2ccc(O)cc2)coc2cc(O)cc(O)c12; active
CCN(CC)C(=O)c1cc(S(=O)(=O)Cc2ccccc2)c(N2CCC(c3ccccc3)CC2)cc1N(CC)CCN(C)C; active
COCC(C)OCC(C)OCC(C)O (stereo unspecified); inactive
Cc1ccc2oc(CN(Cc3ccccc3)C(=O)Nc3c(F)cc(F)cc3F)c(-c3ccc(Cl)cc3)c2c1; inactive
COc1ccc2cc(S(=O)(=O)N[C@H](CC(=O)N[C@H](Cc3ccc(CN4[C@H](C)CCC[C@@H]4C)cc3)C(=O)N(C)C(C)C)c3ccc4c(c3)OCO4)ccc2c1; active

Consider the additional compound presented here.
Query: Please state the recorded outcome for this compound: `Cc1occc1C(=O)Nc1ccc(C(=O)N2CCC(F)(F)/C(=C\C(=O)N3CCC(N4CCCCC4)CC3)c3ccccc32)cc1`
Response: inactive

====

Read-out: JUN Transcription Factor, JUN (gene 3725)
Experiment: LTEA_HepaRG_JUN: Life Technologies and Expression Analysis (LTEA) Assay for JUN Transcription Factor using HepaRG (AID 2283513)
Settings: mRNA level, 48 h; actives raise or lower the signal
Description: LTEA_HepaRG is a cell based, multiplexed-readout assay that uses HepaRG, a human liver cell line, with measurements taken at 48 hours after chemical dosing on a 96-well plate.LTEA_HepaRG_JUN is one of 102 assay component(s) measured in the LTEA HepaRG cell culture assay. It is a marker of Cell proliferation, survival, death.Data from the assay component LTEA_HepaRG_JUN was analyzed into 1 endpoint. […]
The source made the active and inactive calls. The calls were made as follows: active = hit-call score of the fitted dose curve at least 0.9, where 1 is the maximum; inactive = score below 0.9.
Answer with one of the outcomes given here: 1.0 (active), 0.0 (inactive)

Take a look at these entries with their results.
CO[C@H]1/C=C/O[C@@]2(C)Oc3c(C)c(O)c4c(O)c(c(/C=N/N5CCN(C)CC5)c(O)c4c3C2=O)NC(=O)/C(C)=C\C=C\[C@H](C)[C@H](O)[C@@H](C)[C@@H](O)[C@@H](C)[C@H](OC(C)=O)[C@@H]1C; 0.0
CCCC(=O)OCCC(C)C; 0.0
CC(C)(C)c1cc(/C=C2\SC(N)=NC2=O)cc(C(C)(C)C)c1O; 1.0

Consider the additional compound presented here.
Query: Please state the recorded outcome for this compound: `COc1cc(C(=O)NC2CCN(C)CC2)ccc1Nc1ncc2c(n1)N(C1CCCC1)CC(F)(F)C(=O)N2C`
Response: 1.0

====

Tested on: DIO1 (gene 1733)
Test: CCTE_GLTED_hDIO1: CCTE's human Deiodinase 1 (DIO1) Inhibition Assay, Great Lakes Toxicology and Ecology Division (GLTED) Lab (AID 2283987);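 also: isolated human DIO1 enzyme in a cell-free setup rather than cells; enzyme activity read as free iodide liberated from substrate via Sandell-Kolthoff colorimetry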
Records with an inconclusive call do not appear. Activity calls are given as the source filed them. Rule for the calls: active = hit-call score of the fitted dose curve at least 0.9, where 1 is the maximum; inconclusive = response in the unintended direction; inactive = score below 0.9.
reported_endpoint: AC50

CCCCCCCCOC(=O)c1cc(O)c(O)c(O)c1; 101 µM (active)

Kindly review the next molecule as well.
Query: Entry `CC(C)(C)c1csc(-c2cc3cc(OCc4ccccc4CC(=O)O)ccc3o2)n1` : reported AC50 = ?
Response: 100 µM (active)

====

Tested on: DIO3 (gene 1735)
Test: CCTE_GLTED_hDIO3: CCTE's human Deiodinase 3 (DIO3) Inhibition Assay, Great Lakes Toxicology and Ecology Division (GLTED) Lab (AID 2284055)
Calls of active or inactive are those of the source. The calls were made as follows: active = hit-call score of the fitted dose curve at least 0.9, where 1 is the maximum; inconclusive = response in the unintended direction; inactive = score below 0.9.
Answer with one of the outcomes given here: 1 = active, 0 = inactive

Take a look at these entries with their results.
CN(C[C@@H](CC[N+]12CCC(C3CCCCC3)(CC1)CC2)c1ccc(Cl)c(Cl)c1)C(=O)c1cc(C(F)(F)F)cc(C(F)(F)F)c1; 1
CN(C)c1ccc(C(=C2C=CC(=[N+](C)C)C=C2)c2ccc(N(C)C)cc2)cc1; 1
NCc1cccc(C2CCN(C(=O)c3ccc(C#Cc4ccccc4F)o3)CC2)c1; 1
CCCCCCCCCCCCO; 1
CCOC(=O)O[C@H](C)OC(=O)c1ccc2c(c1)cc(C(=O)NC1CCN(C(C)C)CC1)n2Cc1cc(-c2ccc(Cl)s2)on1; 1
CC(C)(C)c1cc(/C=C2\SC(N)=NC2=O)cc(C(C)(C)C)c1O; 1

Query: Please state the recorded outcome for this molecule: `CN(C)C(=O)C1(N2CCCCC2)CCN(CC[C@@]2(c3ccc(Cl)c(Cl)c3)CN(C(=O)c3ccccc3)CCO2)CC1`
Response: 0

Query: Next: `O=CCCCC=O`
Response: 1

====

Experiment: ATG_M_32_TRANS: Attagene TRANS-FACTORIAL HepG2 Assay for M32 Transcription Factor (Internal Marker) (AID 2282984)
Details: HepG2 Attagene TRANS M32 internal marker reporter
Description: ATG_TRANS is a cell-based, multiplexed-readout assay that uses HepG2, a human liver cell line, with measurements taken at 24 hours after chemical dosing in a 24-well plate.ATG_M_32_TRANS is one of 30 assay component(s) measured or calculated from the ATG_TRANS assay. […] This assay endpoint, ATG_M_32_TRANS, was analyzed in the positive analysis fitting direction relative to DMSO as the negative control and baseline of activity. […]
Records with an inconclusive call do not appear. Calls of active or inactive are those of the source. How the source made its calls: active means hit-call score of the fitted dose curve at least 0.9, where 1 is the maximum; inconclusive means response in the unintended direction; inactive means score below 0.9.
Answer with one of the outcomes given here: 1.0 = active, 0.0 = inactive

CCCCCCCCCC(=O)O; 0.0
CCCCCCCCCCCC[N+](C)(C)C; 0.0
CN(C[C@@H](CC[N+]12CCC(C3CCCCC3)(CC1)CC2)c1ccc(Cl)c(Cl)c1)C(=O)c1cc(C(F)(F)F)cc(C(F)(F)F)c1; 1.0

Query: Please state the recorded outcome for this compound: `OCCO`
Response: 0.0

Query: Next: `CC(C)(C)c1cc(/C=C2\SC(N)=NC2=O)cc(C(C)(C)C)c1O`
Response: 0.0

Query: Next: `CC/C(=C(/CC)c1ccc(O)cc1)c1ccc(O)cc1`
Response: 0.0

====

Assay: CCTE_Deisenroth_5AR_NBTE_donor: CCTE's 5alpha-reductase NanoBRET Target Engagement Assay […], Deisenroth Lab (AID 2284319)
Details: actives raise or lower the signal
Activity calls are given as the source filed them. How the source made its calls: active means hit-call score of the fitted dose curve at least 0.9, where 1 is the maximum; inactive means score below 0.9.
Answer with one of the outcomes given here: active, inactive

O=c1[nH]sc2ccccc12; active
O=c1c(-c2ccc(O)cc2)coc2cc(O)cc(O)c12; inactive

Query: Please state the recorded outcome for this compound: `CN1C(=O)CC[C@H]1c1cccnc1`
Response: inactive

Query: Next: `CN(C[C@@H](CC[N+]12CCC(C3CCCCC3)(CC1)CC2)c1ccc(Cl)c(Cl)c1)C(=O)c1cc(C(F)(F)F)cc(C(F)(F)F)c1`
Response: active

Query: Next: `CCCCCCCCOC(=O)c1cc(O)c(O)c(O)c1`
Response: active

Query: Next: `NCc1cccc(C2CCN(C(=O)c3ccc(C#Cc4ccccc4F)o3)CC2)c1`
Response: inactive
